# System: CHO-K1 cells
# measurement-notes: CHO-K1 cell proliferation assay
# experimental-setup: unformulated alkyl esters, 0.195 μM-25 μM, 48 hour incubation
metric: Effect on cell proliferation: concentration with detectable inhibition

[[record]]
compound = "CCCCCCCCOC(=O)COc1cccc2c1C[C@H]1C[C@@H](O)[C@H](CC[C@@H](O)CCCCC)[C@H]1C2 [C8-TR, treprostinil octyl ester]"
result = "25 µM"


----------
# measurement-notes: physchem
# experimental-setup: organic solvent or mixture, thermodynamic from solid
# Experimental: Selected treprostinil derivatives were evaluated for the use in a metered dose inhaler (MDI). 5 mg of each treprostinil compound was added in a glass bottle. Specific amount of ethanol was added by weight. An MDI valve was crimped to each bottle, and HFA propellant added through the valve to the total volume of 5 mL. Compounds were allowed to dissolve for 24 hours at room temperature. The formulations were assessed visually for solubility. […]
metric: solubility at 24 h

[[record]]
cpd_smiles = "CCCCCCCCCCCCCCOC(=O)COc1cccc2c1C[C@H]1C[C@@H](O)[C@H](CC[C@@H](O)CCCCC)[C@H]1C2"
metric = "solubility at 24 h"
result = "< 1000 µg/mL"


----------
# measurement-notes: physchem
# experimental-setup: organic solvent or mixture, thermodynamic from solid, Solubility in HFA-134a with added ethanol
metric: solubility at 24 h

[[record]]
cpd_smiles = "CCCCCCCCCCCCCCOC(=O)COc1cccc2c1C[C@H]1C[C@@H](O)[C@H](CC[C@@H](O)CCCCC)[C@H]1C2"
metric = "solubility at 24 h"
result = "< 1000 µg/mL"

